- assayName: Plasmodium liver-stage growth inhibition, dose response, imaging, Malaria Box, P. yoelii, HepG2-A16-CD81EGFP (AID 602156)
- conditionContext: P. yoelii liver stage in HepG2-A16-CD81EGFP
Among all 5,700 compounds or so, about 280 (4.9%) were called active. A selection follows.
propertyLabel: outcome

molecule | valueObserved
O=C(c1c2c(nc3ccccc13)CCC2)N1CCc2ccccc21 | inactive
CCOC(=O)c1c(C)n(-c2ccccc2)c2ccc(OC(=O)c3ccccc3NC(=O)CC)cc12 | inactive
CCCCCN(C(=O)c1ccc(Br)cc1)C(CC)c1nc2ccccc2c(=O)n1-c1ccccc1OC (stereo not drawn) | inactive
CCN(CC)CCNc1ncnc2c1[nH]c1ccc(Br)cc12 | inactive
Cn1c(SCC2CCCO2)nnc1C1CCN(C/C=C/c2ccccc2)CC1 (stereo not drawn) | inactive
CC1(C)C2CCC1(C)C(NCc1ccccc1O)C2 (stereo not drawn) | inactive
Clc1ccc(-c2c[n+](Cc3ccc(Cl)c(Cl)c3)c3n2CCC3)cc1 | inactive
Cc1cc(C)nc(N=C(N)Nc2ccccc2O)n1 | inactive
Cc1ccc2nc3c(c(Nc4ccc(N(C)C)cc4)c2c1)CCC3 | inactive
COc1ccc(NC(=O)C2c3ccccc3C(=O)N(CC(C)C)C2c2cccs2)cc1OC (stereo not drawn) | inactive
c1ccc(CN2CCC(NCc3c[nH]c4ccccc34)CC2)cc1 | inactive
CCC(Cc1cnc2nc(N)nc(N)c2n1)c1ccc(C(=O)N[C@@H](CCC(=O)O)C(=O)O)cc1 (stereo partly drawn) | inactive
Cc1ccc(O)c(NC(=O)c2cnn3c(C(F)(F)F)cc(-c4ccc(F)cc4)nc23)c1 | inactive
CCCCN(C)C(=O)CSc1nc(NCc2ccccc2)c2ccccc2n1 | inactive
Oc1ccc(-c2cncnc2)cc1CNC1CCN(Cc2ccccc2)CC1 | inactive
CC(C)CN(CC(=O)N1CCC(Nc2nsc3ccccc23)C1)S(C)(=O)=O (stereo not drawn) | inactive
CCCCCCN(C(=O)c1ccccc1)C(CC)c1nc2ccccc2c(=O)n1-c1ccccc1OC (stereo not drawn) | inactive
FC(F)(F)c1cccc(-c2nc3c(s2)CN(C2CCCC2)CC3)c1 | inactive
